Catalogue of compounds with associated GI50
- System: OVCAR-8
- testDetails: NCI tumour cell line growth inhibition, 48 h
Activity calls are given as the source filed them. No stated cut-off is given here; in the data, active = GI50 up to about 1.1 µM and inactive = higher.

A selection of reference data follows.
compound	studyTarget	GI50
CC(=O)C(=N\Nc1ccc(Cl)cc1)/C(C)=N/c1ccc(C)cc1	OVCAR-8	35.6 µM (inactive)
C/C(=N\NC(=S)N1CCCCCC1)c1cccc2cccnc12	OVCAR-8	1.38 µM (inactive)

Could you now consider this next compound?
Using the record for COc1nc(NC2OCC(OC(C)=O)C(OC(C)=O)C2OC(C)=O)c(/N=C(\C)C(C)=O)c(=O)n1C (stereo unspecified) , report its GI50. > 100 µM (inactive)

* * *

- Tested on: RPMI-8226
- testDetails: NCI tumour cell line growth inhibition, 48 h
Active and inactive are the calls of the source. No stated cut-off is given here; in the data, active = GI50 up to about 1.1 µM and inactive = higher.
Choose the fitting class; nothing outside label 1 (active), label 0 (inactive) is accepted.

Example entries begin here.
compound	class
COc1cc2c(c(OC)c1OC)C(=O)[C@@H]1[C@H]2N1C(N)=O	label 0
COc1ccccc1/C=C\c1cnnc2ccccc12	label 0
O=[N+]([O-])c1cc([As](Br)c2ccc(O)c([N+](=O)[O-])c2)ccc1O	label 1
COC(=O)[C@H](Cc1ccccc1)NC(=O)OCC1OC(n2cc(C)c(=O)[nH]c2=O)CC1N=[N+]=[N-] (stereo partly drawn)	label 0
CC(=O)OC12c3ccccc3-c3ccccc3C1C(C(=O)O)C2(Cl)C(=O)O (stereo not drawn)	label 0
CN(C)CCN(C)CCC(=O)/C=C/c1ccccc1	label 0

What is the recorded call for this compound in the test? O=CN(O)CC(=O)O label 0

What is the recorded call for this compound in the test? COC(=O)C1CCC(=O)N1C(c1ccc2c(c1)OCO2)c1ccc2c(c1)OCO2 (stereo not drawn) label 0

* * *

- Tested on: CCRF-CEM
- testDetails: NCI tumour cell line growth inhibition, 48 h
Activity calls are given as the source filed them. Cut-off read from the data, not from the text of the source: active = GI50 up to about 1.1 µM and inactive = higher.
Choose the fitting class; nothing outside TRUE = active, FALSE = inactive is accepted.

Example entries begin here.
compound	class
O=C(O)C1=C(C(=O)O)Oc2ccccc2O1	FALSE
CC1c2c(Cl)nc3ccccc3c2Oc2c1c(Cl)nc1ccccc21	FALSE
O=c1sc(-c2nc3ccccc3[nH]2)c(/N=C/c2ccccc2)n1-c1ccccc1	FALSE

What is the recorded call for this compound in the test? COc1ccc(CNc2cnc3ccc(N)cc3n2)cc1OC FALSE

What is the recorded call for this compound in the test? COP12(OC)NC(=O)OC1(C(F)(F)F)c1ccccc1O2 (configuration not stated) FALSE

* * *

- System: SK-OV-3
- testDetails: NCI tumour cell line growth inhibition, 48 h
Active and inactive are the calls of the source. Rule as the data show it: active = GI50 up to about 1.1 µM and inactive = higher. Peptide text beside a SMILES is read from it. * marks the point of attachment. Cbz = O=C(OCc1ccccc1)*; Boc = CC(C)(C)OC(=O)*; OBn = c1ccc(CO*)cc1
testReadout: GI50

A selection of reference data follows.
molecule	GI50
COc1ccc(-c2nc(N(C)C)c3ccccc3n2)cc1	15.8 µM (inactive)
CC(C)(Oc1ccc(C(=O)c2ccc(Cl)cc2)cc1Cl)C(=O)Nc1c(Cl)cccc1Cl	> 100 µM (inactive)
Cc1nc2ccc(S(=O)(=O)O)cc2c(=O)n1-c1ccc(C(=O)NN2C(=O)C(Cl)C2c2ccccc2O)cc1 (centres undefined)	> 100 µM (inactive)
O=C(/C=C/c1ccc2ccccc2c1)NCc1ccc(C(=O)NCCc2ccccc2)cc1	> 100 µM (inactive)
O=C(CCN1CCCCC1)Nc1ccc2c(c1)C(=O)c1ccc(NC(=O)CCN3CCCCC3)cc1C2=O	13.2 µM (inactive)
Cc1cccc(C(C)C)c1NC(=O)C(=O)CC(=O)c1sc(Nc2ccccc2Cl)nc1C	20.7 µM (inactive)
CC(=O)O[C@H]1C[C@H]2C(=S)Nc3ccccc3C(=S)N2C1	> 100 µM (inactive)
CCOC(=O)c1nnc2c(C(=O)OCC)c3ccccc3n2c1N	6.04 µM (inactive)

Notebook entry, SK-OV-3 assay: GI50 of CN(C)CCN(C)CCC(=O)/C=C/c1ccccc1 = ? > 100 µM (inactive)

Notebook entry, SK-OV-3 assay: GI50 of Cc1ccc(NC(=O)C(=O)CC(=O)c2sc(Nc3c(C)cccc3C)nc2C)cc1C = ? > 100 µM (inactive)

Notebook entry, SK-OV-3 assay: GI50 of COC(=O)[C@H](Cc1ccccc1)NP(=O)(OCCC#N)OCC1OC(n2cc(C)c(=O)[nH]c2=O)CC1N=[N+]=[N-] (some centres undefined) = ? > 100 µM (inactive)

Notebook entry, SK-OV-3 assay: GI50 of O=C(COc1ccc(Br)cc1Br)N1N=C(c2ccc([N+](=O)[O-])o2)CC1(O)c1ccccc1 (centres undefined) = ? 24.1 µM (inactive)

Notebook entry, SK-OV-3 assay: GI50 of Cc1cccc(O)c(=O)c1 = ? > 100 µM (inactive)

Notebook entry, SK-OV-3 assay: GI50 of Cc1cc(C)c(C(=O)c2no[n+]([O-])c2C(=O)c2c(C)cc(C)c(Br)c2C)c(C)c1Br = ? 20.7 µM (inactive)

Notebook entry, SK-OV-3 assay: GI50 of CCOC(=O)C(C(=S)Nc1ccccc1)c1nn2c(=O)cc(C)nc2s1 (centres undefined) = ? 23.3 µM (inactive)

Notebook entry, SK-OV-3 assay: GI50 of COC(=O)C(CCCCNC(=O)OCc1ccccc1)NC(=O)C(CCC(=O)OCc1ccccc1)NC(=O)OC(C)(C)C (centres undefined) (Boc-Glu(OBn)-Lys(Cbz)-OMe; configuration not given here) = ? 46.6 µM (inactive)

Notebook entry, SK-OV-3 assay: GI50 of O=C(O)c1ccc2c(c1)C(=O)N(c1ccc(S(=O)(=O)c3ccc(N4C(=O)c5ccc(C(=O)O)cc5C4=O)cc3)cc1)C2=O = ? > 100 µM (inactive)

Notebook entry, SK-OV-3 assay: GI50 of Oc1cccc(-c2cc(=S)ss2)c1 = ? 20 µM (inactive)

Notebook entry, SK-OV-3 assay: GI50 of CCOC(=O)C1COc2cc(-c3cc(=O)c4ccccc4o3)ccc2O1 (centres undefined) = ? > 100 µM (inactive)

* * *

- Tested on: K562
- testDetails: NCI tumour cell line growth inhibition, 48 h
Active and inactive are the calls of the source. Cut-off read from the data, not from the text of the source: active = GI50 up to about 1.1 µM and inactive = higher. Peptide text beside a SMILES is read from it. * marks the point of attachment. Cbz = O=C(OCc1ccccc1)*; Boc = CC(C)(C)OC(=O)*; OBn = c1ccc(CO*)cc1
testReadout: GI50

A selection of reference data follows.
compound	testResult
CC(=O)c1ccc(NC(=O)C(=O)CC(=O)c2sc(-n3nc(-c4ccccc4)cc3-c3ccccc3)nc2C)cc1	> 100 µM (inactive)
COC(=O)C(CCCCNC(=O)OCc1ccccc1)NC(=O)C(CCC(=O)OCc1ccccc1)NC(=O)OC(C)(C)C (centres undefined) (Boc-Glu(OBn)-Lys(Cbz)-OMe; configuration not given here)	> 100 µM (inactive)
CCOC(=O)n1[nH]c(=O)n(-c2ccccc2)c1=O	> 100 µM (inactive)

Could you now consider this next compound?
Using the record for c1cc2nsnc2c2c[nH]cc12 , report its GI50. 49.1 µM (inactive)

* * *

Catalogue of compounds with associated GI50
- System: OVCAR-5
- testDetails: NCI tumour cell line growth inhibition, 48 h
Activity calls are given as the source filed them. No stated cut-off is given here; in the data, active = GI50 up to about 1.1 µM and inactive = higher.

Using the record for OCCN(CCO)c1ccc2c(c1)Cc1ccccc1-2 , report its GI50. 48.3 µM (inactive)

Using the record for O=[N+]([O-])c1cc([As](Br)c2ccc(O)c([N+](=O)[O-])c2)ccc1O , report its GI50. 2.05 µM (inactive)

Using the record for CC(=O)Nc1cc2ccc(=O)oc2cc1Cl , report its GI50. > 100 µM (inactive)

Using the record for CN(Cc1cnc2nc(N)nc(N)c2n1)c1ccc(C(=O)NCS(=O)(=O)O)cc1 , report its GI50. > 100 µM (inactive)

Using the record for CC(Oc1ccccc1)C(=O)NN (configuration not stated) , report its GI50. > 100 µM (inactive)

Using the record for CC(=O)NC1C(OCc2ccccc2)OC(CO)C(O)C1OCC(=O)NC(C)C(=O)NC(CCC(=O)NCCCCNc1ccc([N+](=O)[O-])c2[nH]c3ccccc3c(=O)c12)C(N)=O (configuration not stated) , report its GI50. > 100 µM (inactive)

Using the record for O=C1NC(=S)N/C1=C\c1cc2c(=O)c3ccccc3sc2s1 , report its GI50. > 100 µM (inactive)

Using the record for O=C1c2c[nH]nc2C(c2ccccc2)N1c1ccccc1 (configuration not stated) , report its GI50. > 10 µM (inactive)

* * *

- Test system: HCT-116
- testDetails: NCI tumour cell line growth inhibition, 48 h
Counter-ions that a name gives are not always drawn. The source made the active and inactive calls. Cut-off read from the data, not from the text of the source: active = GI50 up to about 1.1 µM and inactive = higher.
Choose the fitting class; nothing outside active, inactive is accepted.

Example entries begin here.
molecule	studyTarget	class
CC(C)c1ccc2nc3ccc(C(=O)NCCN(C)C)cn3c(=O)c2c1	HCT-116	inactive
O=C1c2cccc3cc([N+](=O)[O-])cc(c23)C(=O)N1CCCN1CCN(CCCNc2ccc3ncn4c5ccccc5c(=O)c2c34)CC1	HCT-116	active
C/C(=N\NC(=S)N1CCCCCC1)c1cccc2cccnc12	HCT-116	active
O/N=C1\SC(=N\O)/C(=N/O)S\C1=N/O	HCT-116	inactive
Cc1ccc(N(C(=O)Nc2ccccc2)C2=NCC(C)S2)cc1C (stereo not given)	HCT-116	inactive
N#Cc1c(N2CCOCC2)[nH]c(=O)c(C(c2c(Cl)cccc2Cl)c2c(O)c(C#N)c(N3CCOCC3)[nH]c2=O)c1O	HCT-116	inactive
CC(=O)c1ccc(NC(=O)C(=O)CC(=O)c2sc(-n3nc(-c4ccccc4)cc3-c3ccccc3)nc2C)cc1	HCT-116	inactive
Oc1ccc(C(O)C2CCCCN2)cc1O (stereo not given) [RIMITEROL HYDROBROMIDE]	HCT-116	inactive

What is the recorded call for this molecule in the test? O=CN(O)CC(=O)O inactive

What is the recorded call for this molecule in the test? COc1cccc(C(=O)C2C(=O)N(C)CCc3ccccc32)c1OC (stereo not given) inactive
